- Test system: HepG2
- Assay Comment: Cytotoxicity against human HepG2 cells incubated for 96 hrs by MTT assay
- Type: functional
Metric: GI50 (µM)
Answer with a number only, understood to be in µM.

Here's what some known entries look like.
COc1cc([C@H]2Oc3cc([C@H]4Oc5cc(O)cc(O)c5C(=O)[C@@H]4OC(=O)CCNC(=O)[C@]45CC[C@@H](C)[C@H](C)[C@H]4C4=CC[C@@H]6[C@@]7(C)C[C@@H](OC(C)=O)[C@H](OC(C)=O)[C@@](C)(COC(C)=O)[C@@H]7[C@H](O)C[C@@]6(C)[C@]4(C)CC5)ccc3O[C@@H]2CO)ccc1O
141
Cc1c2ccncc2c(C)c2c1[nH]c1ccccc12
0.42
COc1cc([C@H]2Oc3cc([C@H]4Oc5cc(OC(C)=O)cc(OC(C)=O)c5C(=O)[C@@H]4OC(=O)CNC(=O)[C@]45CC[C@@H](C)[C@H](C)[C@H]4C4=CC[C@@H]6[C@@]7(C)C[C@@H](OC(C)=O)[C@H](OC(C)=O)[C@@](C)(COC(C)=O)[C@@H]7[C@H](O)C[C@@]6(C)[C@]4(C)CC5)ccc3O[C@@H]2COC(C)=O)ccc1OC(C)=O
122

Measured GI50, CC(=O)OC[C@@]1(C)C2=CC[C@]3(C)C(CC=C4[C@@H]5[C@@H](C)[C@H](C)CC[C@]5(C(=O)O)CC[C@]43C)[C@@]2(C)C[C@@H](OC(C)=O)[C@@H]1OC(C)=O (some centres undefined) : 38.5
